System: SF-295 CNS
Test: NCI-60 one-dose screen, 48 h (100 = growth as untreated, 0 = no growth, -100 = all killed)
Details: 10 µM unless noted
Procedure: Cells are grown in 96 well plates and exposed to the test compound for 48 hours. Compounds are tested at a single concentration, which is 10^-5 M for most compounds. The reported endpoint is percent growth (GI% or GIPRCNT), where numbers from 0 - 100% represent growth inhibition, and numbers from -100% - 0 represent cell death. For example, a value of 40 represents 60% growth inhibition. A value of 0 means no net growth occurred over the course of the experiment. […]
The panel holds about 83,000 compounds, 20% with a hit somewhere; the sample as a whole holds those more often.
// values below are reported growth
recordedMetric: growth (%)

{"compound": "CN(C)S(=O)(=O)Oc1ccc(-c2sc3cc(OS(=O)(=O)N(C)C)ccc3c2C(=O)c2ccc(OCCN3CCCCC3)cc2)cc1", "measurementUnit": "%", "recordedMeasurement": 48.6}
{"compound": "CNC(=O)c1cc(Oc2cccc3nc(NC(=O)Nc4cc(C(F)(F)F)ccc4Cl)ccc23)ccn1", "measurementUnit": "%", "recordedMeasurement": 106}
{"compound": "CC[C@]12C=CCN3CC[C@@]4(c5ccc(OC)cc5N(C)[C@H]4[C@@](O)(C(=O)OC)[C@@H]1OC(=O)CCC[P+](c1ccccc1)(c1ccccc1)c1ccccc1)[C@@H]32", "measurementUnit": "%", "recordedMeasurement": 23.3}
{"compound": "CC/C=C\\CCC/C=C1/C(=O)C=C[C@@H]1C/C=C\\CCCC(=O)OC", "measurementUnit": "%", "recordedMeasurement": 74.2}
{"compound": "COc1ccc(C(=O)c2cc3c(N)c(C(=O)Nc4ccccc4)sc3nc2C)cc1", "measurementUnit": "%", "recordedMeasurement": 26.9}
{"compound": "CC1=C(C(=O)Nc2ccccc2)C(c2ccc3c(c2)OCO3)NC(=S)N1 (centres undefined)", "measurementUnit": "%", "recordedMeasurement": 105}
{"compound": "CCCn1cnc2c(c1=N)C(c1ccc(F)cc1)c1sc3c(F)cccc3c1O2 (centres undefined)", "measurementUnit": "%", "recordedMeasurement": 27.7}
{"compound": "CCCCCN(CCCCC)CC(O)c1cc(C)c2ccc3cc(C(C)C)ccc3c2c1 (centres undefined)", "measurementUnit": "%", "recordedMeasurement": 103}
{"compound": "CCO/C=N/C1=C(C#N)C(c2ccc(F)cc2)c2sc3c(F)cccc3c2O1 (centres undefined)", "measurementUnit": "%", "recordedMeasurement": 22}

* * *

Tested on: ACHN renal
Assay: NCI-60 one-dose screen, 48 h (100 = growth as untreated, 0 = no growth, -100 = all killed)
Details: 10 µM unless noted
This is part of a sample that, as a whole, favours compounds with a hit. Of some 83,000 tested, about 20% had one in any assay.

{"molecule": "COC(=O)c1nc(-c2ccccc2)oc1S(=O)(=O)NCC(c1ccc(Cl)cc1)N1CCOCC1 (stereo not drawn)", "measurementUnit": "%", "growth": 64.7}
{"molecule": "COc1ccc(C2=NN(C(C)=O)C(c3cn(-c4ccccc4)nc3-c3ccc(Cl)cc3)C2)cc1 (stereo not drawn)", "measurementUnit": "%", "growth": 8.45}
{"molecule": "CC1(C)CC2=C3C=C[C@@H]4[C@@]5(C)CCC(=O)C(C)(C)[C@@H]5CC[C@@]4(C)[C@]3(C)CC[C@@]2(C(=O)O)C[C@H]1O", "measurementUnit": "%", "growth": 8.49}
{"molecule": "CC1(C)CC[C@]2(CO)CC[C@]3(C)[C@H](CC[C@@H]4[C@@]5(C)CCCNC(C)(C)[C@@H]5CC[C@]43C)[C@H]2[C@H]1O", "measurementUnit": "%", "growth": 101}
{"molecule": "CN(C)S(=O)(=O)Oc1ccc(-c2sc3cc(OS(=O)(=O)N(C)C)ccc3c2C(=O)c2ccc(OCCN3CCCCC3)cc2)cc1", "measurementUnit": "%", "growth": 32.3}
{"molecule": "CCN1CCN(CC(=O)Nc2nc3ccc(NCc4ccc(F)cc4)cc3s2)CC1", "measurementUnit": "%", "growth": 94.7}
{"molecule": "C=C1C(=O)O[C@H]2[C@H]1CC/C(COC(=O)c1cc3cc(Cl)ccc3[nH]1)=C\\CC[C@@]1(C)O[C@@H]21", "measurementUnit": "%", "growth": -89.2}
{"molecule": "CN1CCN(CCOc2ccc(-c3cnc4c(-c5cccc(F)c5F)cnn4c3)cc2)CC1", "measurementUnit": "%", "growth": -22.7}
